- assayed target: T1, Mcl-1, Q07820
- T1 chain: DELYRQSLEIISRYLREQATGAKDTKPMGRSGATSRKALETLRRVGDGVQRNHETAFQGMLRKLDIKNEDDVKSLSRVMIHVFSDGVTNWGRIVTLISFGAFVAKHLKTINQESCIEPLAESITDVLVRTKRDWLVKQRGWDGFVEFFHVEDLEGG
- run description: peptide SPOT array, c-Myc-tagged receptor at 1 uM or 100 nM, anti-c-Myc-Cy3
property name: SPOT signal as a fraction of Bim BH3's signal on the same receptor and array

Example binders with recorded SPOT signal as a fraction of Bim BH3's signal on the same receptor and array:
- binder: "DLSSTFVSLALRKVGDWPLSARREKG [TTC31]"
  val: 0.47
- binder: "KEYRNQFPEILRRAAAHLECIFRFEL [MAGEE1]"
  val: 0.02

[1] SKFVILSAHKLVFILDTLSRQAKAAD [BCAR1]
[2] VTLLSEVEKMLSNFLDCVQYKEIVKN [SYNE1]
[3] LALLAQPSHLDRQVARSVFGHICSHL [MYBBP1A]
[4] ERAISCMGQIDCNLGDNLGSDLPNTL [CAND1]
[5] SQEPLEKAQLLALVLDQLIQSHHYAA [MCF2L2]
Sequence the entries by SPOT signal as a fraction of Bim BH3's signal on the same receptor and array, beginning with the highest number. Write the labels in rank order as requested.
3, 2, 5, 1, 4
